assay: HARVARD: Cytotoxicity in HepG2 cell line; details: human, HepG2 cells
List of pIC50 values.
Scale: negative log10 of molar concentration, which is what pIC50 denotes.

>  <chemical smiles>
CCCCCCCCCc1ccc(OCCOCCOCCOCCOCCOCCOCCOCCOCCO)cc1

>  <quantity>
pIC50

>  <measurement>
4.21

$$$$

// query What value of pIC50 has been reported for the following molecule? CC(C)=CC[C@@H](O)C1=CC(=O)c2c(O)ccc(O)c2C1=O
// result 4.55

// query What value of pIC50 has been reported for the following molecule? CCN(CC)CCOc1ccc(C(=C(Cl)c2ccccc2)c2ccccc2)cc1
// result 4.96
